The origin of these recorded values is patent US10138255B2.

- System: HIV-1 (H9IIIB strain)
- assay-info: Cell-Based HIV Infection Assay Using a Reporter (MT4-GFP cells)
- conditions-used: Human immunodeficiency virus 1, inflection point (IP) of viral growth inhibition; MT4-GFP cells infected with HIV-1 H9IIIB; 50% normal human serum; mean of at least two independent experiments; read-out: Cell Based IP (50% NHS)
value-type: pEC50
Convention used: pEC50 is expressed as -log10 of the molar concentration.

Reading of pEC50 for COC(=O)N[C@H](C(=O)N[C@H]1CCC[C@@H]1CC[C@H]1CN[C@@H]2CCCS(=O)(=O)N1C2)[C@@H](c1ccc(F)cc1)C1C[C@@H](C)O[C@@H](C)C1 (stereo partly drawn) with HIV-1 (H9IIIB strain): 7.30

Measured pEC50 for this entry COC(=O)N[C@H](C(=O)Nc1cccc(F)c1CCC1CNC2CCCS(=O)(=O)N1C2)[C@@H](c1ccc(F)cc1)c1ccc2c(c1)CCC2 (stereo partly drawn) on HIV-1 (H9IIIB strain): 7.64

Kindly note: HIV-1 (H9IIIB strain), CC(C)n1cc([C@H](c2ccc(Cl)cc2)[C@H](N)C(=O)Nc2cccc(F)c2CCC2CNC3CCCS(=O)(=O)N2C3)ccc1=O (stereo partly drawn) , pEC50 value reported: 7.20
